These measurements were taken from patent US20210277003A1.

- SYSTEM_UNDER_TEST: recombinant human Meningioma Expressed Antigen 5 (MGEA5), also referred to as O-GlcNAcase (OGA) (Homo sapiens)
- Construct: Full length OGA enzyme was purchased at OnGene (cat #TP322411); purchased OnGene (so in the source)
- Sequence (O60502 1-916): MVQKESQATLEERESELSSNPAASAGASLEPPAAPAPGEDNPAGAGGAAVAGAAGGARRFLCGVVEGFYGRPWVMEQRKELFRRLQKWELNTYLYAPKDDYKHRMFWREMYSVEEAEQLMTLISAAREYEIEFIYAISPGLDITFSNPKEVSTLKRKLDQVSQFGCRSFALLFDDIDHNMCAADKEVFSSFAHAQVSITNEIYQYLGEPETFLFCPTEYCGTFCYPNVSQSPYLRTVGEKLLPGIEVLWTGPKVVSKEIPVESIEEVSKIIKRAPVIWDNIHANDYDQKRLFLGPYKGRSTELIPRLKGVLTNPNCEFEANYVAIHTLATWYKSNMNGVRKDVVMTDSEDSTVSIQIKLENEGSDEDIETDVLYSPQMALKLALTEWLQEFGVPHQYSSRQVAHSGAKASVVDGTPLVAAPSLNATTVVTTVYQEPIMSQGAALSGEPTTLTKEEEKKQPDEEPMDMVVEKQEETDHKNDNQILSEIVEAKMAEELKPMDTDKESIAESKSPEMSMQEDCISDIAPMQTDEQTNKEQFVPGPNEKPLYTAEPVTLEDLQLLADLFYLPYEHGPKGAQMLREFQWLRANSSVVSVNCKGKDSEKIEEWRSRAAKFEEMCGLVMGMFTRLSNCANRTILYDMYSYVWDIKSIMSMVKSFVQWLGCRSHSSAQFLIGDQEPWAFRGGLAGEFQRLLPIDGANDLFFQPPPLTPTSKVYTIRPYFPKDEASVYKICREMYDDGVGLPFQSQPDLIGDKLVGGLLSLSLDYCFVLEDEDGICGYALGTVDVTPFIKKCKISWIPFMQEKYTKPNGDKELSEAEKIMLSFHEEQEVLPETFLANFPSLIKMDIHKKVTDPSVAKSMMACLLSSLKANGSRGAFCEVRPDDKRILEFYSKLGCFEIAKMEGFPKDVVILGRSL
- ASSAY_COMMENT: OGA biochemical assay: inhibition of hydrolysis of fluorescein mono-ß-D-N-Acetyl-Glucosamine (FM-GlcNAc), fluorescence readout
- CONDITION_NOTES: FM-GlcNAc substrate, read-out: Enzymatic Emax (%)
QUANTITY_NAME: Emax (%)
Numbers only, in %.

FC1(F)CC1CCn1ccc2c(Nc3c(Cl)cccc3Cl)nccc21 (stereo not shown); 104

Quick batch: Emax for everything below.
1. CC(C)(C#N)Cn1ccc2c(Nc3c(Cl)cc(F)cc3Cl)nccc21
2. Cc1ccnc(C)c1Nc1nccc2c1ccn2CCC1COC1
3. CCC(O)Cn1ccc2c(Nc3c(C)ccnc3C)nccc21 (stereo not shown)
4. CC(C)C(F)(F)Cn1ccc2c(Nc3c(Cl)cccc3Cl)nccc21

output:
96
100
101
104

Quick batch: Emax for everything below.
1. CCCCn1ccc2c(Nc3c(C)ccc4[nH]c(C)nc34)nccc21
2. CCCCn1ccc2c(Nc3c(C)cnc4c3OCCO4)nccc21
3. Cc1cc2c(c(C)c1Nc1nccc3c1ccn3CC1CC(F)(F)C1)OCCO2
4. Cc1ccnc(C)c1Nc1nccc2c1ccn2CC1CCCO1 (stereo not shown)
5. Cc1cc(C(F)(F)F)nc(C)c1Nc1nccc2c1ccn2CC(F)(F)C(C)C
6. Cc1ccnc(C)c1Nc1nccc2c1ccn2CCC(C)(C)C#N
7. Cc1ccnc(C(F)F)c1Nc1nccc2c1ccn2CC(C)(F)F
8. Clc1cccc(Cl)c1Nc1nccc2c1ccn2CC1CCO1 (stereo not shown)

output:
[100, 102, 100, 99.1, 102, 100, 99.9, 104]

Quick batch: Emax for everything below.
1. Cc1c(F)cnc(C(C)C)c1Nc1nccc2c1ccn2CC1CCO1 (stereo not shown)
2. Cc1cc2cnn(C)c2c(C)c1Nc1nccc2c1ccn2CC(F)(F)C(C)C

output:
[103, 100]
